# procedureDetails: in vitro
# assaySetup: African green monkey
measuredProperty: CC50

[
  {
    "molSmiles": "NC(=O)c1ncn([C@@H]2O[C@H](CO)[C@@H](O)[C@H]2O)n1",
    "CC50": "> 1600 µg/mL"
  }
]

Pending molecule:
QUERY: Provide only the value of recorded CC50 for COc1c(C)c2c(c(O)c1C/C=C(\C)CCC(=O)O)C(=O)OC2
RESULT: > 32 µg/mL

====

For each record, write down the corresponding TC50.
# System: MDCK cells
# assaySetup: dog
Give bare numbers, in µM.

Reference set (9 entries):
[
  {
    "molecule": "CC[C@H]1CN2CCc3cc(OC)c(OC)cc3[C@@H]2C[C@@H]1C[C@H]1NCCc2cc(OC)c(OC)cc21",
    "testResult": 17.00
  },
  {
    "molecule": "COc1c(C)c2c(c(O)c1C/C=C(\\C)CCC(=O)O)C(=O)OC2",
    "testResult": 170.00
  },
  {
    "molecule": "C[C@]12CC[C@@H]3c4ccc(O)cc4CC[C@H]3[C@@H]1CC[C@@H]2O",
    "testResult": 75.00
  },
  {
    "molecule": "Cc1c(Cl)cccc1Nc1ccccc1C(=O)O",
    "testResult": 64.00
  },
  {
    "molecule": "Sc1ncnc2nc[nH]c12",
    "testResult": 100.00
  },
  {
    "molecule": "NC(=O)c1ncn([C@@H]2O[C@H](CO)[C@@H](O)[C@H]2O)n1",
    "testResult": 168.00
  },
  {
    "molecule": "O=C(O)c1ccccc1Nc1cccc(C(F)(F)F)c1",
    "testResult": 79.16
  },
  {
    "molecule": "Cc1ccc(Cl)c(Nc2ccccc2C(=O)O)c1Cl [Meclofenamate sodium]",
    "testResult": 100.00
  },
  {
    "molecule": "CCc1nc(N)nc(N)c1-c1ccc(Cl)cc1",
    "testResult": 5.40
  }
]

Pending molecule:
QUERY: Give TC50 for this entry on MDCK cells: Cc1cccc(Nc2ccccc2C(=O)O)c1C
RESULT: 200.00
